- System: COLO 205 colon
- measurement-description: NCI tumour cell line growth inhibition, 48 h
Recorded TGI by entry

* CN(C(=O)C1CCCCC1)c1ccccc1I(=O)=O | 29.8 µM
* COc1cc(OC)c(-c2cc(=O)c3c(OC)c(OC)c(OC)c(OC)c3o2)cc1OC | > 100 µM

Prompt line: Identify measured TGI obtained with COLO 205 colon for COc1ccc2c(c1)Oc1nc(N)c(C#N)c(N)c1C2Sc1ccc(SC)cc1 (stereo not drawn) .
Response line: 3.6 µM

----------
- Tested on: DMS 273 small cell lung
- measurement-description: NCI tumour cell line growth inhibition, 48 h
quantity-name: TGI (µM)
State the answer as a number, implicitly in µM.

- CCc1nc2c(O)ccc(O)c2nc1C: 37
- OCC(O)CC[CH2][Sn]([c]1ccccc1)([c]1ccccc1)[c]1ccccc1 (stereo unspecified): 29.6

Prompt line: Identify measured TGI obtained with DMS 273 small cell lung for CN(C)CCNC(=O)c1ccc2ccc3cccnc3c2n1 .
Response line: 22.6

Prompt line: Identify measured TGI obtained with DMS 273 small cell lung for Nc1cc2c(cc1[N+](=O)[O-])[nH]c1c(-c3ccccc3)nccc12 .
Response line: 48.9

Prompt line: Identify measured TGI obtained with DMS 273 small cell lung for O=C(CCN1CCCCC1CCO)Nc1ccc2c(c1)C(=O)c1ccc(NC(=O)CCN3CCCCC3CCO)cc1C2=O (stereo unspecified) .
Response line: 12.5

----------
- Tested on: HOP-62 NSCLC
- measurement-description: NCI tumour cell line growth inhibition, 48 h
quantity-name: TGI (µM)
State the answer as a number, implicitly in µM.

Answered cases to consult:
- OCC(O)CC[CH2][Sn]([c]1ccccc1)([c]1ccccc1)[c]1ccccc1 (stereo not drawn): 39.1
- COC1/C=C\C=C(/C)C(=O)NC2=CC(=O)C(NCCCl)=C(CC(C)CC(OC)C(O)C(C)/C=C(/C)C1OC(N)=O)C2=O (stereo not drawn): 5.91
- COc1ccc2nc3ccc(OC)cc3c(S(=O)Cc3ccc([N+](=O)[O-])cc3)c2c1 (stereo not drawn): 30.7
- COc1c2nc(CCl)n(C)c(=O)c2c(OC)c2c(=O)n(C)c(CCl)nc12: 5.7
- O=C1Nc2ccc(Cl)cc2/C1=C\c1c(-c2ccc(F)cc2)nc2ccccn12: 6.32
- O=C1OCC(c2ccc(O)c(O)c2)=C1c1cc(O)c(O)c(O)c1: 33.3
- CCC1(O)C=CC(=O)C=C1: 67.5
- O=C1c2ccn(CCCCN3CCOCC3)c2C(=O)c2c1c(O)c1ccccc1c2O: 34.5

Prompt line: Specify TGI for Brc1c[n+](Cc2ccc3ccccc3c2)cn1Cc1ccc2ccccc2c1 and stop.
Response line: 5.96

Prompt line: Specify TGI for COc1ccc(-c2nc(-c3nc4ccc(F)cc4[nH]3)cc3c2[nH]c2ccccc23)cc1 and stop.
Response line: 74.7

----------
- Tested on: U251 CNS
- measurement-description: NCI tumour cell line growth inhibition, 48 h
Recorded TGI by entry

* CC1(C)CCc2c(cc3c(c2O)CCC(C)(C)O3)O1 | > 100 µM
* O=c1c2cc([N+](=O)[O-])ccc2n2n1Cc1ccccc1CC2 | > 100 µM
* CC(C)(C)C1CC[C@H]2c3c([nH]c4ccc(Br)cc34)[C@H]3C(=O)N(c4ccccc4)C(=O)[C@H]3[C@H]2C1 (stereo not given in full) | 36.5 µM
* CCOc1ncn(-c2ccc(NC(=S)Nc3cccc(O)c3)cc2)n1 | > 100 µM

Next molecule, please.
Prompt line: Specify TGI for O=S(=O)(Nc1ccc(-c2nc(-c3cccc(OCCN4CCOCC4)c3)c(-c3ccnc(Br)c3)[nH]2)cc1)c1ccccc1 and stop.
Response line: 46 µM

These measurements were taken from PubChem BioAssay (NCI).
